- systemTested: Cdk2(H71C) (C177A) (Homo sapiens, UniProt P24941, C177A/H71C)
- Construct: poly-histidine; made in house; host or cells: E. coli
- assayProcedure: Kinetic thiol consumption assay with Cdk2 mutant H71C
- Assay type: binding
- Design: key: rate constant with Cdk2 ÷ rate constant with model thiol (fold)
- experimentalSetup: Cdk2 H71C, additional mutation C177A
This section presents molecules with their documented Rate enhancement, Cdk2 H71C values.

Check out these entries, answers already filled in.
1) C=CC(=O)N1CCN(C(=O)OC(C)(C)C)CC1 = 0.1266
2) C=CC(=O)Nc1cccc(-c2nnnn2C2CC2)c1 = 1.636
3) O=S1(=O)C=CC(Br)C1 (stereo not drawn) = 0.1025
4) C=CC(=O)N1CC(OCc2cccc3ccccc23)C1 = 3.672
5) C=CC(=O)Nc1ccc(C(=O)OC)cc1 = 1.035
6) CN(C#N)Cc1ccccc1 = 5.4624E−12
7) C=CC(=O)N1CCN(c2ccccc2[N+](=O)[O-])CC1 = 4.627
8) Cn1cc(S(=O)(=O)N2CCOCC2)cc1C(=O)NC(=O)CCl = 7.5652E−12

Now let's try a different one.
Query: Please report the measured Rate enhancement, Cdk2 H71C for `C=CC(=O)NCc1ccc(C(=O)OC)cc1` tested on Cdk2(H71C) (C177A) (Homo sapiens, UniProt P24941, C177A/H71C).
Response: 0.538
